Reference source for all entries: paper doi:10.1101/2025.05.23.655736v2

Target: PcsBCHAP (CHAP domain of PcsB) (Streptococcus pneumoniae)
Sequence (A0A0H2ZQ76 274-392): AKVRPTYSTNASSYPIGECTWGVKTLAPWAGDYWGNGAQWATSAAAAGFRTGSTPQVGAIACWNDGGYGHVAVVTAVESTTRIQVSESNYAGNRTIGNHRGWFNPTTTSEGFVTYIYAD
readout-kind: pKd
Note on pKd: it is the negative log10 of concentration, concentration in mol/L.

Req: Look up pKd for this molecule: NCCCC[C@H](NC(=O)CC[C@@H](N)C(=O)O)C(=O)O
Resp: 7.03
